measured on: Human neutrophil elastase (Homo sapiens, UniProt P08246)
Sequence (P08246 30-267): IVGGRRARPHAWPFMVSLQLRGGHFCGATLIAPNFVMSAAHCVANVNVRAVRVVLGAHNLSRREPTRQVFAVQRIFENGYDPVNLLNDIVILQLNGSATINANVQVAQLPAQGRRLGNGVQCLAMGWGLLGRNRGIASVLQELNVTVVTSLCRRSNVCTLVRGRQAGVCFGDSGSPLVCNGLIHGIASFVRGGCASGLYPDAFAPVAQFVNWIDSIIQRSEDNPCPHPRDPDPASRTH
assay summary: Human Neutrophil Elastase Assay
experimental parameters: substrate MeOSuc-Ala-Ala-Pro-Val-AMC 250 μM, pH 7.5, fluorescence
recorded metric: IC50 (nM)

{"compound": "Cc1c(-c2ccnn2C)cc(C(=O)NCc2ccc(S(C)(=O)=N[N+](=O)[O-])cc2)c(=O)n1-c1cccc(C(F)(F)F)c1 (stereo not drawn) [Example 12]", "measured on": "Human neutrophil elastase (Homo sapiens, UniProt P08246)", "result units": "nM", "IC50": 5}

1: Cc1nc(N=S(C)(=O)c2ccc(CNC(=O)c3cc(-c4ccnn4C)c(C)n(-c4cccc(C(F)(F)F)c4)c3=O)cc2)oc1C (stereo not drawn) [Example 7]
2: Cc1c(-c2ccnn2C)cc(C(=O)NCc2ccc(S(C)(=O)=NC#N)cc2)c(=O)n1-c1cccc(C(F)(F)F)c1 (racemic) [Example 3]
3: Cc1c(-c2ccnn2C)cc(C(=O)NCc2ccc(S(C)(=N)=NC#N)cc2)c(=O)n1-c1cccc(C(F)(F)F)c1 (stereo not drawn) [Example 15.2]
4: CN=S(=O)(c1ccc(CNC(=O)c2cc(-c3ccnn3C)c(C)n(-c3cccc(C(F)(F)F)c3)c2=O)cc1)N(C)C (stereo not drawn) [Example 1.1]
**Query** Please give the order of these compounds when sorted by IC50, largest value leading. Answer format: the labels, ordered as requested.
**Result** 1, 4, 3, 2
(1: 34.3 nM, 4: 11.4 nM, 3: 6.7 nM, 2: 2.6 nM)
